Please provide measured log10 of IC50 for the entries that follow.
# Test system: MCF7
# assay_method_text: Inhibitory concentration against MCF-7 cell line
# Type: functional, cell-based
# measurement_parameters: Homo sapiens
# log10 transformed; quantity=IC50; unit=nM

Query string: Given `CC(=O)N1CCC[C@H]1C(=O)N(C1CCCCC1)C1(C(=O)N/C=C\c2c[nH]c3ccccc23)CCCCC1` , respond with its log10 of IC50.
Result string: 2.60

Query string: Assign log10 of IC50 to the following record: `CC(=O)NCC(=O)N(CCc1c[nH]c2ccccc12)CC(=O)N/C=C\c1c[nH]c2ccccc12`
Result string: 3.61

Query string: Give the reported log10 of IC50 for this compound. `CC(=O)N[C@H](CC(C)C)C(=O)N(CCc1c[nH]c2ccccc12)CC(=O)N/C=C\c1c[nH]c2ccccc12`
Result string: 4.70

Query string: Fill in reported log10 of IC50 for this entry: CC(=O)N[C@H](CC(C)C)C(=O)N(C)C(Cc1ccccc1)C(=O)N/C=C\c1c[nH]c2ccccc12 (stereo not given in full)
Result string: 2.48

Query string: For the compound CC(=O)N1CCCC1C(=O)N(C)C(Cc1ccccc1)C(=O)N/C=C\c1c[nH]c2cc(OCc3ccccc3)ncc12 (stereo not given) , report log10 of IC50.
Result string: 3.28
